Values from paper PMC7902330

Answer each item with its documented Tmax.
- assayText: Pharmacokinetics of ingredients in rat plasma after oral administration of shimotsuto (targeted LC–MS/MS)
- Format: in vivo
- testConditions: rat, in vivo, po, 1 g/kg
Number in min, nothing else.

Data request: Provide Tmax value for the following molecule: CCCC[C@@H]1OC(=O)C2=C1CCC=C2 [Senkyunolide A]
Data returned: 15

Data request: Indicate the recorded Tmax value for this molecule: CCC/C=C1\OC(=O)C2=C1CCC=C2 [Ligustilide]
Data returned: 30

Data request: Read off the recorded Tmax for CC12CC(O)C3CC1(OC1OC(CO)C(O)C(O)C1O)C3(COC(=O)c1ccccc1)C(=O)O2 (stereo not shown) [Albiflorin]
Data returned: 30

Data request: Fill in reported Tmax for this entry: CC12CC3(O)OC(O1)C1(CO)C3CC21OC1OC(CO)C(O)C(O)C1O (stereo not shown) [8-Debenzoylpaeoniflorin]
Data returned: 60

Data request: Supply measured Tmax of COc1cc(/C=C/C(=O)O)ccc1O [Ferulic acid] in your reply.
Data returned: 15

Data request: For OC[C@H]1O[C@@H](O[C@@H]2OC=C[C@H]3[C@H](O)[C@@H]4O[C@]4(CO)[C@@H]23)[C@H](O)[C@@H](O)[C@@H]1O [Catalpol] , write its Tmax.
Data returned: 60

Data request: Please list Tmax recorded for the molecule CCCCC1OC(=O)c2ccccc21 (stereo not shown) [Butylphthalide]
Data returned: 30
